STUDY_SYSTEM: GlcNAc(b1-2)[GlcNAc(b1-4)]Man(a1-3)[GlcNAc(b1-4)][GlcNAc(b1-2)Man(a1-6)]Man(b1-4)GlcNAc(b1-4)GlcNAc
PROTOCOL: glycan array binding signal (z-score within array); higher = stronger binding
CONDITION_SUMMARY: glycan notation: IUPAC condensed, linker removed
Only a selection was taken, and the strongest signals are over-represented in it overall.
Below, each of the binders is paired with its reported glycan array binding signal (z-score) value.
A bare number is all that is needed in reply.

LecB LY19 (Pseudomonas aeruginosa) (protein) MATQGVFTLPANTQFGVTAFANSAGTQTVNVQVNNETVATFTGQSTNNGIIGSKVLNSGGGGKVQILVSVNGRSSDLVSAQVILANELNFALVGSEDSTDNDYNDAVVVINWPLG : -0.556
Vd2LysM (Verticillium dahliae) (protein) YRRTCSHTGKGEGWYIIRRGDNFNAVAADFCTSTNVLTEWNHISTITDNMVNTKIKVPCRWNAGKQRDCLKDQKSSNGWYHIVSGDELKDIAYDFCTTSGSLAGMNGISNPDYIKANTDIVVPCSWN : 2.82
rPitB (Streptococcus pneumoniae), A0A0I7U739 (protein) MSEIEIINAKKIYHDVPVIENLNITIPKGSLFTLLGASGCGKTTLLRMIAGFNSIKDGEFYFDDTKINNMEPSKRNIGLVFQNYAIFPHLTVRDNVAFGLMQKKVPKEELIQQTNKYLELMQIAQYAD : -1.01
CIH1 (Colletotrichum higginsianum) (protein) LPQATPTTPTPTSASAAATISATSSPTCSPGPVIDYTVVSGDTLTIISQRFSSGICNIADASGITNPNFLSLGQVLQVPTYVCTPDNTSCLAKEGSDTCVEGGPATHTIVAGDTFFLVAQSLGLDVNALLAANEGVDPLLLQIGDVINIPVC : -0.065

--- query ---
Query block: # lookup: glycan array binding signal (z-score) of GNAT (Pseudomonas aeruginosa), Q9HV14 (protein) MQLSHRPAETGDLETVAGFPQDRDELFYCYPKAIWPFSVAQLAAAIAERRGSTVAVHDGQVLGFANFYQWQHGDFCALGNMMVAPAARGLGVARYLIGVMENLAREQYKARLMKISCFNANAAGLLLYTQLGYQPRAIAERHDPDGRRVALIQMDKPLEP
Result block: -0.318

Cited source: the supplement of paper PMC8728848
